assay: Aqueous solubility; format: physicochemical; details: aqueous medium; comparison table, Example 7
ATTRIBUTE MEASURED: solubility

Query: Would you mind telling me what solubility value was observed for `Cc1ccc(-c2ccc(O[C@H]3CN4CCC3CC4)cn2)cc1` ?
Response: 50 µg/mL

----------
test: Hygroscopicity (moisture gain at relative humidity); type: physicochemical; set-up: unit not given here; conditions: comparison table, Example 7
ATTRIBUTE MEASURED: Hygroscopy @ 85% RH
Respond numerically, and do not add a unit to the figure.

These solved cases illustrate the format of a correct answer.
[[record]]
compound = "Cc1ccc(-c2ccc(O[C@H]3CN4CCC3CC4)cn2)cc1.O=P(O)(O)O [Form A of the mono-phosphate salt]"
observed_value = 0.2

[[record]]
compound = "Cc1ccc(-c2ccc(O[C@H]3CN4CCC3CC4)cn2)cc1.O=C(O)/C=C\\C(=O)O [mono-maleate salt]"
observed_value = 0.3

[[record]]
compound = "Cc1ccc(-c2ccc(O[C@H]3CN4CCC3CC4)cn2)cc1.O=C(O)CC(=O)O [mono-malonate salt]"
observed_value = 1.3

[[record]]
compound = "Cc1ccc(-c2ccc(O[C@H]3CN4CCC3CC4)cn2)cc1.O=C(O)CCC(=O)O [Form A of the mono-succinate salt]"
observed_value = 0.3


Query: # get_value(readout='Hygroscopy @ 85% RH', item= `Cc1ccc(-c2ccc(O[C@H]3CN4CCC3CC4)cn2)cc1.O=C(O)/C=C/C(=O)O` )
Response: 0.5

----------
assay: Oral bioavailability and brain penetration in mice; assay type: in vivo; settings: male, OF1/IC, mouse, plasma, po, 30 μmol/kg p.o., 0.25 hour, read-out: Plasma (pmoles/ml ± SD)
ATTRIBUTE MEASURED: concentration at 0.25 h (pmol/mL)
Answer format: numeric, pmol/mL implied, no suffix.

Query: # get_value(readout='concentration at 0.25 h', item= `Cc1ccc(-c2ccc(O[C@H]3CN4CCC3CC4)cn2)cc1` )
Response: 573

----------
molecular target: human α7-nAChR (Homo sapiens, UniProt P36544); construct: expressed in transfected cells; host or cells: GH3 cells (rat pituitary line); test: functional assay (FLIPR, Fluo-4 calcium) using GH3 cells that recombinantly expressed human α7-nAChR; type: cell-based; conditions: GH3 cells, human α7-nAChR; read-out: α7-nAChR activity Potency EC50
Sequence (P36544 23-502): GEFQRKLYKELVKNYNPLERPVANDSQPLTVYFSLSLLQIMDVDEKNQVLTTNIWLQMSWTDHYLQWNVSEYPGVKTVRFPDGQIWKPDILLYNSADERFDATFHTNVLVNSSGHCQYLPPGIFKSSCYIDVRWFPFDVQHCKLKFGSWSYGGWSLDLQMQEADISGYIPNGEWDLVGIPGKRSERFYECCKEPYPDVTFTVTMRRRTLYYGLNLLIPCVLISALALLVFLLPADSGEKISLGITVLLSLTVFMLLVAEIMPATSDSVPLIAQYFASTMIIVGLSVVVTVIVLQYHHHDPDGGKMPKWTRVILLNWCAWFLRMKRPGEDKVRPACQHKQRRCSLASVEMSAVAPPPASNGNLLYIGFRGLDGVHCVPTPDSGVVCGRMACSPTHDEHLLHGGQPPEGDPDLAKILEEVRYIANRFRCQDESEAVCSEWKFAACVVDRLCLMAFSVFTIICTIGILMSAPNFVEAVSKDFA
ATTRIBUTE MEASURED: EC50 (nM)
Please reply with the bare figure in nM and do not write the unit itself.

Query: Kindly state the measured EC50 obtained for `Cc1ccc(-c2ccc(O[C@H]3CN4CCC3CC4)cn2)cc1` with human α7-nAChR (Homo sapiens, UniProt P36544).
Response: 35

----------
molecular target: human neuronal nAChR α4β2 (Homo sapiens, UniProt P17787+P43681); assay: similar functional assay using a human epithelial cell line stably expressing the human α4β2 subtype
Sequence (P43681 29-627 limits assumed): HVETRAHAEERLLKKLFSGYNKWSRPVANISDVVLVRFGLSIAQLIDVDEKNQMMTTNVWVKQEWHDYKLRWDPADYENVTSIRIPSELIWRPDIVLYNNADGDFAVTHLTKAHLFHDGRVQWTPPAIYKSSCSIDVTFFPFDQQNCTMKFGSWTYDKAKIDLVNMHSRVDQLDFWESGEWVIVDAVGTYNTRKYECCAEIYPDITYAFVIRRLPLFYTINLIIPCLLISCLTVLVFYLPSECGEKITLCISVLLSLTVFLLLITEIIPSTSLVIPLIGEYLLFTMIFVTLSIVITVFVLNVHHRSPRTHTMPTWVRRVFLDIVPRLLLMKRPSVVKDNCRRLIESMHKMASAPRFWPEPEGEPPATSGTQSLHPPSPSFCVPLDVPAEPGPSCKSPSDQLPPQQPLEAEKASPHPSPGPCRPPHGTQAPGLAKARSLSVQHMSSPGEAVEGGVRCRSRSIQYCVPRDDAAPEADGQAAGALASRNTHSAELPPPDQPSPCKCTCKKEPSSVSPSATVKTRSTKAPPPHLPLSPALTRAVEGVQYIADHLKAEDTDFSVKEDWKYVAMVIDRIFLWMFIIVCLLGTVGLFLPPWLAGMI
Sequence (P17787 26-502): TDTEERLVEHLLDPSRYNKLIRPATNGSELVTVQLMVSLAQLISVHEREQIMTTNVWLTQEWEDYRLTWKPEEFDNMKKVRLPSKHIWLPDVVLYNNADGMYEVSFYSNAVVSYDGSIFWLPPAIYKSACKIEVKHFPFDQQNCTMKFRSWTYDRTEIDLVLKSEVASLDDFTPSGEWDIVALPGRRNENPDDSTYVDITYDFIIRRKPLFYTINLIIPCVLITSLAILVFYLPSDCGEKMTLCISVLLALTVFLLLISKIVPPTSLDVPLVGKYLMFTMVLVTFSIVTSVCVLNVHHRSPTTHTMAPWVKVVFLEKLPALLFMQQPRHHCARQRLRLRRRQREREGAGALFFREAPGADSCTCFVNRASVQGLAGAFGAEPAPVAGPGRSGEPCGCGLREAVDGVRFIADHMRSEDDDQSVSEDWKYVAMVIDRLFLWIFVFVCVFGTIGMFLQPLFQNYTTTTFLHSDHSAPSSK
ATTRIBUTE MEASURED: EC50

Query: Which EC50 is reported for this molecule? Cc1ccc(-c2ccc(O[C@H]3CN4CCC3CC4)cn2)cc1 [Compound A]
Response: > 100 µM

----------
assay: Hygroscopicity (moisture gain at relative humidity); assay type: physicochemical; conditions: at 85% relative humidity (RH)
ATTRIBUTE MEASURED: moisture gain (%)
Could you give me the number in %? Just the number is fine.

[[record]]
compound = "Cc1ccc(-c2ccc(O[C@H]3CN4CCC3CC4)cn2)cc1.O=C(O)CCC(=O)O [Form A of the mono-succinate salt]"
attribute_measured = "moisture gain"
readout_unit = "%"
observed_value = 0.3


Query: Value lookup for moisture gain; key = Cc1ccc(-c2ccc(O[C@H]3CN4CCC3CC4)cn2)cc1.O=C(O)CC(=O)O [mono-malonate salt]
Response: 1.3

Query: moisture gain; subject: Cc1ccc(-c2ccc(O[C@H]3CN4CCC3CC4)cn2)cc1.O=P(O)(O)O [Form A of the mono-phosphate salt]
Response: 0.2

Query: Fill blank: measured moisture gain of the compound Cc1ccc(-c2ccc(O[C@H]3CN4CCC3CC4)cn2)cc1.O=C(O)/C=C\C(=O)O [mono-maleate salt] is ____.
Response: 0.3

Query: Recorded moisture gain for `Cc1ccc(-c2ccc(O[C@H]3CN4CCC3CC4)cn2)cc1.O=C(O)/C=C/C(=O)O` , please?
Response: 0.5
